Origin of values: paper PMC9931771

Test: Phase 1 trial: pharmacokinetics of surufatinib and toripalimab (non-compartmental analysis)
Format: in vivo, human
Conditions: human, in vivo, oral, surufatinib 250 mg + toripalimab 240 mg; C1D1; N 12; read-out: Surufatinib AUC0-τ, geometric mean (CV%)
Measured Quantity: AUC (ng·h/mL)

1) Cc1cc2cc(Oc3ccnc(Nc4cccc(CS(=O)(=O)NCCN(C)C)c4)n3)ccc2[nH]1 = 1840

----------
Test: Phase 1 trial: pharmacokinetics of surufatinib and toripalimab (non-compartmental analysis)
Type: in vivo, human
Settings: human, in vivo, oral, surufatinib 250 mg + toripalimab 240 mg; C3D1; N 9; read-out: Surufatinib Tmax, median
Measured Quantity: Tmax (h)

1) Cc1cc2cc(Oc3ccnc(Nc4cccc(CS(=O)(=O)NCCN(C)C)c4)n3)ccc2[nH]1 = 1.93
